Values compiled from ChEMBL document CHEMBL1201862.

# System: UO-31
# assayProcedure: NCI tumour cell line growth inhibition, 48 h
Activity calls are given as the source filed them. Rule as the data show it: active = GI50 up to about 1.1 µM and inactive = higher.
Form entry, call: pick from true (active), false (inactive)

The examples below pair each entry with its known result.
molecule	assignedLabel
COC1(OC)C(N(C)C)=C(Cl)C(=O)/C1=C/C=O	false
CCN1CCCc2cc3c(C(F)(F)F)cc(=O)oc3cc21	false
COc1cc([C@@H]2c3cc4c(cc3[C@@H](Nc3ccc(Cl)cc3C(=O)c3ccccc3Cl)[C@H]3COC(=O)[C@H]23)OCO4)cc(OC)c1OC	true
CC(=O)Nc1ccc(C2C(C(=O)Nc3ccccc3C)=C(C)NC(C)=C2C(=O)Nc2ccccc2C)cc1	false
COc1ccc2cc(CNCCCCCCNCc3ccc4cc(OC)ccc4c3)ccc2c1	false
C=C(C)COc1ccc2c(c1)CCC1C2CCC2(C)C(=O)/C(=N/O)CC12 (stereo unspecified)	false
CCCN1C(=O)CCC2=C1CCc1c2ccc(Cl)c1Cl	false
CCC(C)C(=O)c1c(O)c(C/C=C(\C)CCC=C(C)C)c(O)c2c(C(O)CC)cc(=O)oc12 (stereo unspecified)	false

Query: What was the test verdict on "Cc1cccc(NC(=O)C(=O)C2C(=O)NC(=O)NC2=O)c1C" ?
Reply: false

Query: What was the test verdict on "C[C@]1(CO)[C@H]2CC[C@@]34C=C[C@@](CO)(CC[C@H]3[C@]2(C)CC[C@H]1O)C4" ?
Reply: false

Query: What was the test verdict on "CN(C)c1ccc(/C=C/c2ccnc3ccc4ccccc4c23)cc1" ?
Reply: false
